- TARGET ENTITY: B. subtilis GCYH-IB (Bacillus subtilis)
- Construct: His6 (cleaved yes); made in house; host or cells: E. coli BL21 (DE3), pET-30 Xa/LIC plasmid pSAB-9-61
- Sequence (P94398 whole entry): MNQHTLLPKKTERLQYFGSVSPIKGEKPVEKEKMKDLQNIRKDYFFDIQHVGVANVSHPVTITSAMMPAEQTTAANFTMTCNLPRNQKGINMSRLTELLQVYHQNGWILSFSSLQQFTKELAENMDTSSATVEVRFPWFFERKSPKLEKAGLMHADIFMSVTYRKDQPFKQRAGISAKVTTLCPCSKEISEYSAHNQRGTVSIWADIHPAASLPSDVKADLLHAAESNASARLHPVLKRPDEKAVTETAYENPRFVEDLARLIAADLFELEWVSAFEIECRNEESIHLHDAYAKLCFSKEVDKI
- Assay type: biochemical
- RUN CONDITIONS: apoenzyme 2 μM, metal 0.1 μM-4 mM, 0.1 mM GTP
EXPERIMENTAL ENDPOINT: [Metal] (metal concentration for optimal activity) (µM)
Just the number please, in µM, no unit attached.

{"COMPOUND STRING": "[Ni+2]", "TEST VALUE": 100}

[Metal] (metal concentration for optimal activity) in this record for `[Mn+2]` : 500

[Metal] (metal concentration for optimal activity) in this record for `[Zn+2]` : 50

[Metal] (metal concentration for optimal activity) in this record for `[Fe+2]` : 1000

[Metal] (metal concentration for optimal activity) in this record for `[Co+2]` : 100

[Metal] (metal concentration for optimal activity) in this record for `[Mg+2]` : 100

Just for reference, patent US8328934B2 is where these values come from.
